Please provide measured hIP1 GRPR EC50 for the entries that follow.
# system tested: human GRP receptor (human, UniProt P30550 1-384)
# Sequence (P30550 whole entry): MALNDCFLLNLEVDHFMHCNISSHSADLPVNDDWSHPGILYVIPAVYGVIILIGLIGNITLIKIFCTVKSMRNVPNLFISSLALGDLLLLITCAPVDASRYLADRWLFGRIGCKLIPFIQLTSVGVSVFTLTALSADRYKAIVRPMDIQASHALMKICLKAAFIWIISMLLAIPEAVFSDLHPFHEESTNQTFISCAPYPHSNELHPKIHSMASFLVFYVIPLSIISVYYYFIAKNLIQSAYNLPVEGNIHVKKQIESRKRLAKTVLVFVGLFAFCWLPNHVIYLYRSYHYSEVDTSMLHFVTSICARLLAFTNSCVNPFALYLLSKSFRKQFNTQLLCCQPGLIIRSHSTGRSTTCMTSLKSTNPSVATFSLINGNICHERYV
# assay remarks: cell-based or functional assay
Starred links: 1 amine or outer side, 2 acyl side, 3 side chain; linkers in the order of their positions; H or OH if unused. Non-standard residues stand in square brackets, D forms with d. *: point of attachment. Trp(7-F) = N[C@@H](Cc1c[nH]c2c(F)cccc12)C(=O)O; Trp(7-Me) = Cc1cccc2c(C[C@H](N)C(=O)O)c[nH]c12; C20 diacid = O=C(O)CCCCCCCCCCCCCCCCCCC(=O)*; d(γGlu) = O=C(O)[C@@H](CCC(=O)[*:2])N[*:1]; γGlu = O=C(O)[C@H](CCC(=O)[*:2])N[*:1]; Palmitoyl = CCCCCCCCCCCCCCCC(=O)*; Hyp = O=C(O)[C@@H]1C[C@@H](O)CN1; Nle = CCCC[C@H](N)C(=O)O; AEEA = NCCOCCOCC(=O)O; Aib = CC(C)(N)C(=O)O; βAla = NCCC(=O)O
Numbers only, in nM.

The examples below pair each entry with its known result.
| binder | hIP1 GRPR EC50 [nM] |
| --- | --- |
| {C20 diacid}-[γGlu][AEEA][AEEA][Hyp]QHWAV[βAla]HL[Nle]-NH2 (SMILES CCCC[C@H](NC(=O)[C@H](CC(C)C)NC(=O)[C@H](Cc1c[nH]cn1)NC(=O)CCNC(=O)[C@@H](NC(=O)[C@H](C)NC(=O)[C@H](Cc1c[nH]c2ccccc12)NC(=O)[C@H](Cc1c[nH]cn1)NC(=O)[C@H](CCC(N)=O)NC(=O)[C@@H]1C[C@@H](O)CN1C(=O)COCCOCCNC(=O)COCCOCCNC(=O)CC[C@H](NC(=O)CCCCCCCCCCCCCCCCCCC(=O)O)C(=O)O)C(C)C)C(N)=O) [Peptide 269] | 2.4 |
| Palmitoyl-[d(γGlu)][AEEA][AEEA]GNH[Trp(7-F)]AV[dA]HL[Nle]-NH2 (SMILES CCCCCCCCCCCCCCCC(=O)N[C@H](CCC(=O)NCCOCCOCC(=O)NCCOCCOCC(=O)NCC(=O)N[C@@H](CC(N)=O)C(=O)N[C@@H](Cc1c[nH]cn1)C(=O)N[C@@H](Cc1c[nH]c2c(F)cccc12)C(=O)N[C@@H](C)C(=O)N[C@H](C(=O)N[C@H](C)C(=O)N[C@@H](Cc1c[nH]cn1)C(=O)N[C@@H](CC(C)C)C(=O)N[C@@H](CCCC)C(N)=O)C(C)C)C(=O)O) [Peptide 56] | 1.97 |
| {C20 diacid}-[γGlu][γGlu][AEEA][AEEA]GEH[Trp(7-Me)]AV[BABA]HL[Nle]-NH2 [Peptide 247] | 1.8 |
| {C20 diacid}-[γGlu]GNHWAV[dA][dH]L[Nle]-NH2 (SMILES CCCC[C@H](NC(=O)[C@H](CC(C)C)NC(=O)[C@@H](Cc1c[nH]cn1)NC(=O)[C@@H](C)NC(=O)[C@@H](NC(=O)[C@H](C)NC(=O)[C@H](Cc1c[nH]c2ccccc12)NC(=O)[C@H](Cc1c[nH]cn1)NC(=O)[C@H](CC(N)=O)NC(=O)CNC(=O)CC[C@H](NC(=O)CCCCCCCCCCCCCCCCCCC(=O)O)C(=O)O)C(C)C)C(N)=O) [Peptide 160] | 31.5 |

Req: Please report hIP1 GRPR EC50 for the following binder: Palmitoyl-[d(γGlu)][AEEA][AEEA]GNHWAV[dA]HL[Nle][Aib]-NH2 (SMILES CCCCCCCCCCCCCCCC(=O)N[C@H](CCC(=O)NCCOCCOCC(=O)NCCOCCOCC(=O)NCC(=O)N[C@@H](CC(N)=O)C(=O)N[C@@H](Cc1c[nH]cn1)C(=O)N[C@@H](Cc1c[nH]c2ccccc12)C(=O)N[C@@H](C)C(=O)N[C@H](C(=O)N[C@H](C)C(=O)N[C@@H](Cc1c[nH]cn1)C(=O)N[C@@H](CC(C)C)C(=O)N[C@@H](CCCC)C(=O)NC(C)(C)C(N)=O)C(C)C)C(=O)O) [Peptide 75]
Resp: 18.2
